CLint scaled by entry:
# test_name: Clearance in human liver microsomes
# Type: ADME, Microsome
# condition_info: liver microsomes
The answer is to be given in mL/min/kg; state only the numeric part.

Name the recorded CLint scaled for CC(C)(O)c1ccc(C2(c3cccc(O)c3)CCCN(CC3CC3)C2)cc1 (stereo not drawn) .
22

New cases:
Name the recorded CLint scaled for CCN(CC)C(=O)c1ccc(C2(c3cccc(O)c3)CCN(CC3CC3)CC2)cc1 .
62.9

Entry to check: CCN(CC)C(=O)c1ccc(C2(c3cccc(O)c3)CCN(CCc3ccccc3)CC2)cc1
239

Entry to check: CCN(C)C(=O)c1ccc(C2(c3cccc(O)c3)CCCN(CC3CC3)C2)cc1 (stereo not drawn)
70

Entry to check: CCC(O)(CC)c1ccc(C2(c3cccc(C(N)=O)c3)CCN(CC3CC3)CC2)cc1
26.1

Entry to check: CCN(CC)C(=O)c1ccc(C2(c3cccc(O)c3)CCCN(CC3CC3)C2)cc1 (stereo not drawn)
89

###

# tested_on: Kappa-type opioid receptor (Homo sapiens)
# Sequence (P41145 whole entry): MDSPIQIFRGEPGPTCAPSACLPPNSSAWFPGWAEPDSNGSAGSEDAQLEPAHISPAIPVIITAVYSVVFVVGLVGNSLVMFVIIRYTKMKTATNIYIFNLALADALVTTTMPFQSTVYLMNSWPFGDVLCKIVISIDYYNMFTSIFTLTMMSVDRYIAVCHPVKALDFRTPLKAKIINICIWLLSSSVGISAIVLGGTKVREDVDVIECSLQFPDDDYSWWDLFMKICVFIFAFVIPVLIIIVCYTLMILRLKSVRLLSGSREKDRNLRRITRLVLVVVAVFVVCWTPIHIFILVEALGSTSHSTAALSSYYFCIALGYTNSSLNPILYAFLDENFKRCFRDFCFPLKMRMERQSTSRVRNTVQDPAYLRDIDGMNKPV
measured_property: log10 of Ki (log10 of the value in nM)
Remember, log10 of Ki, in nM.

Name the recorded log10 of Ki for CCN(CC)C(=O)c1ccc(C2(c3cccc(O)c3)CCCN(CC3CC3)C2)cc1 (stereo not given) .
1.38

Entry to check: CCCC(C)CN1CCC(c2ccc(C(=O)N(C)C)cc2)(c2cccc(O)c2)CC1 (stereo not given)
2.18

Entry to check: CCN(CC)C(=O)c1ccc(C2(c3cccc(O)c3)CCN(CCc3ccccc3)CC2)cc1
1.98

Entry to check: CCN(CC)C(=O)c1ccc(C2(c3cccc(O)c3)CCN(CC3CC3)CC2)cc1
2.64

Entry to check: CCN(CC)C(=O)c1ccc(C2(c3cccc(O)c3)CCCN(Cc3nccs3)C2)cc1 (stereo not given)
2.21

Entry to check: CCC(O)(CC)c1ccc(C2(c3cccc(C(N)=O)c3)CCN(CC3CC3)CC2)cc1
1.90

Entry to check: CCCC(C)CN1CCC(c2ccc(C(O)(CC)CC)cc2)(c2cccc(C(N)=O)c2)CC1 (stereo not given)
1.65

Entry to check: CCN(C)C(=O)c1ccc(C2(c3cccc(O)c3)CCCN(CC3CC3)C2)cc1 (stereo not given)
1.82

Entry to check: C=CCN1CCC(c2ccc(C(=O)N(CC)CC)cc2)(c2cccc(O)c2)CC1
2.54

Entry to check: CCN(CC)C(=O)c1ccc(C2(c3cccc(O)c3)CCCN(CC(F)(F)F)C2)cc1 (stereo not given)
1.38

Now take the following molecule into account.
Name the recorded log10 of Ki for CC(C)(O)c1ccc(C2(c3cccc(O)c3)CCCN(CC3CC3)C2)cc1 (stereo not given) .
1.61

###

pKi by entry:
# tested_on: Delta-type opioid receptor (Homo sapiens)
# Sequence (P41143 whole entry): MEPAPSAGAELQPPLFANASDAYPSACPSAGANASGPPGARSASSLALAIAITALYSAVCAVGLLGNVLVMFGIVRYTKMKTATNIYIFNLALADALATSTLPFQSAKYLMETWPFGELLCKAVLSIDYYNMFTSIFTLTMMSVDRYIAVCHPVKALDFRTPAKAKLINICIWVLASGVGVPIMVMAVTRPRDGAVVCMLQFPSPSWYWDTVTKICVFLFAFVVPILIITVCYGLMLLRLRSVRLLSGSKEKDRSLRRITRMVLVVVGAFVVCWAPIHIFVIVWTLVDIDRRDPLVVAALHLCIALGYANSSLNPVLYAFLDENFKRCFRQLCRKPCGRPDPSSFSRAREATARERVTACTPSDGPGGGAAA
# test_name: Displacement of [3H]diprenorphine from human delta opioid receptor expressed in CHO cells by liquid scintillation counting
Scale explanation: pKi corresponds to minus log10 of a concentration expressed in moles per litre.

Please review the entries below; each comes with its answer.
Could you share what pKi was measured for CCCC(C)CN1CCC(c2ccc(C(=O)N(CC)CC)cc2)(c2cccc(O)c2)CC1 (stereo unspecified) , tested on Delta-type opioid receptor (Homo sapiens)?
8.74

Entry to check: C=CCN1CCC(c2ccc(C(=O)N(CC)CC)cc2)(c2cccc(O)c2)CC1
8.72

Entry to check: CCN(C)C(=O)c1ccc(C2(c3cccc(O)c3)CCCN(CC3CC3)C2)cc1 (stereo unspecified)
8.66

New cases:
Could you share what pKi was measured for CCN(CC)C(=O)c1ccc(C2(c3cccc(O)c3)CCN(CC3CC3)CC2)cc1 , tested on Delta-type opioid receptor (Homo sapiens)?
8.05

Entry to check: CCN(CC)C(=O)c1ccc(C2(c3cccc(O)c3)CCN(CCc3ccccc3)CC2)cc1
9.05

Entry to check: CCN(CC)C(=O)c1ccc(C2(c3cccc(O)c3)CCCN(Cc3nccs3)C2)cc1 (stereo unspecified)
8.46

Numbers sourced from ChEMBL document CHEMBL1153251.
